Measured values drawn from patent US20230066156A1 for this set.

# study_target: human GPBAR1 (Homo sapiens)
# Construct: expressed in transfected cells; host or cells: HEK-293T
# Sequence (Q8TDU6 whole entry): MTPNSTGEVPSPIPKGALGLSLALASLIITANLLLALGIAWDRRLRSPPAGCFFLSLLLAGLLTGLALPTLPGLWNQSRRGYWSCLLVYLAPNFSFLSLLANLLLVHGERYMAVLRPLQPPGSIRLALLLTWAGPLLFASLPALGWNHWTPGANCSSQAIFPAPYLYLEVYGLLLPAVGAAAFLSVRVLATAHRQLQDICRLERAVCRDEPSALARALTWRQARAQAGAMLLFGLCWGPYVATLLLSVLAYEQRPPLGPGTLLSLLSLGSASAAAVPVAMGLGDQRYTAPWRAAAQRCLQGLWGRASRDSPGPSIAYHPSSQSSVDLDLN
# assay_name: GPBAR1 mediated transactivation, CRE-luciferase reporter in transfected HEK-293T cells
# Type: cell-based
# run_parameters: compound at 10 microM, HEK-293T, TLCA = 100%, triplicate
endpoint_name: GPBAR1 (% of activity in comparison to 10 μM TLCA) (%)
Numbers only, in %.

# annotated cases, reported GPBAR1 (% of activity in comparison to 10 μM TLCA) shown
C[C@H](CC#N)[C@H]1CC[C@H]2[C@@H]3C[C@@](C)(O)[C@@H]4C[C@H](O)CC[C@]4(C)[C@H]3CC[C@]12C [PBT109A] :: 83.4
C=C[C@]1(O)C[C@@H]2[C@H](CC[C@]3(C)[C@@H]([C@H](C)CC#N)CC[C@@H]23)[C@@]2(C)CC[C@@H](O)C[C@H]21 :: 62.5

Now take the following molecule into account.
// field: GPBAR1 (% of activity in comparison to 10 μM TLCA); key: CC(C)[C@]1(O)C[C@@H]2[C@H](CC[C@]3(C)[C@@H]([C@H](C)CC#N)CC[C@@H]23)[C@@]2(C)CC[C@@H](O)C[C@H]21 ; value = 22.2

====

# study_target: FXR (Homo sapiens)
# Construct: expressed in transfected cells; host or cells: HepG2
# Sequence (Q96RI1 1-486): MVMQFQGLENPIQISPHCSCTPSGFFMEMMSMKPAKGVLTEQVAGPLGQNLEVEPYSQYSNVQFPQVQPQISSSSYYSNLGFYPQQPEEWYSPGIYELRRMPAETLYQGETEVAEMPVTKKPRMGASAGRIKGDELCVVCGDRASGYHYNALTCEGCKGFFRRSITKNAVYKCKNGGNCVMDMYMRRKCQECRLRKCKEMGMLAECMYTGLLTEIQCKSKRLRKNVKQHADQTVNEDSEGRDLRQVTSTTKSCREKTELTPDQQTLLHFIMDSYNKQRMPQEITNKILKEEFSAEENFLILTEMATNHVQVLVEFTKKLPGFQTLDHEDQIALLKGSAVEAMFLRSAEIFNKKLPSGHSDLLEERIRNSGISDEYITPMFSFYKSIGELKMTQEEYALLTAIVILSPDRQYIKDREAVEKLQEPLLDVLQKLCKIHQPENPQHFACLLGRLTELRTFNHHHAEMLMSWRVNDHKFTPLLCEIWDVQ
# Sequence (P19793 1-462 partner): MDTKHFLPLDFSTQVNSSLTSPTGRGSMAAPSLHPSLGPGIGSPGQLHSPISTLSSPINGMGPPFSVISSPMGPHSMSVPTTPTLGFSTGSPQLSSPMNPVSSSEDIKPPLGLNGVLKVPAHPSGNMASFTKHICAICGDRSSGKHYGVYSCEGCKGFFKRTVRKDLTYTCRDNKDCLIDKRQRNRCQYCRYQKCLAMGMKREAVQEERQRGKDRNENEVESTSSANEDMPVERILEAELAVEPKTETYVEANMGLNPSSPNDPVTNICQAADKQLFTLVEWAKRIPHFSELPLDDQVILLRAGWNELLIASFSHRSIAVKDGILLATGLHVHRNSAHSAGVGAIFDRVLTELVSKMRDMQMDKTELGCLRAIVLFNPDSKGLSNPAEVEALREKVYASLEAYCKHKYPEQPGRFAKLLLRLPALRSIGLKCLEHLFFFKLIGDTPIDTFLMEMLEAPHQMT
# assay_name: FXR mediated transactivation, IR1 (hsp27)-luciferase reporter in transfected HepG2 cells
# Format: cell-based
# run_parameters: compound at 10 μM, HepG2, vs maximal transactivation by CDCA 10 μM, triplicate
Rule: FXR (% of activity in comparison to 10 μM CDCA) under 4% gives no (0), otherwise yes (1).

Consider the worked cases shown below.
CC[C@@]1(O)C[C@H]2[C@@H]3CC[C@H]([C@H](C)CC#N)[C@@]3(C)CC[C@@H]2[C@@]2(C)CC[C@@H](O)C[C@@H]12 [PBT110A] :: yes (1)
C[C@H](CC#N)[C@H]1CC[C@H]2[C@@H]3C[C@](O)(Cc4ccccc4)[C@@H]4C[C@H](O)CC[C@]4(C)[C@H]3CC[C@]12C :: yes (1)
C=C[C@]1(O)C[C@@H]2[C@H](CC[C@]3(C)[C@@H]([C@H](C)CC#N)CC[C@@H]23)[C@@]2(C)CC[C@@H](O)C[C@H]21 :: no (0)
CCC[C@]1(O)C[C@H]2[C@@H]3CC[C@H]([C@H](C)CC#N)[C@@]3(C)CC[C@@H]2[C@@]2(C)CC[C@@H](O)C[C@@H]12 :: no (0)
CC[C@]1(O)C[C@H]2[C@@H]3CC[C@H]([C@H](C)CC#N)[C@@]3(C)CC[C@@H]2[C@@]2(C)CC[C@@H](O)C[C@@H]12 [PBT110B] :: yes (1)
C[C@H](CC#N)[C@H]1CC[C@H]2[C@@H]3C[C@](C)(O)[C@@H]4C[C@H](O)CC[C@]4(C)[C@H]3CC[C@]12C [PBT109B] :: yes (1)
C[C@H](CC#N)[C@H]1CC[C@H]2[C@@H]3C[C@@](C)(O)[C@@H]4C[C@H](O)CC[C@]4(C)[C@H]3CC[C@]12C [PBT109A] :: yes (1)
CC(C)[C@]1(O)C[C@@H]2[C@H](CC[C@]3(C)[C@@H]([C@H](C)CC#N)CC[C@@H]23)[C@@]2(C)CC[C@@H](O)C[C@H]21 :: yes (1)

I'd appreciate it if you could say whether C[C@H](CC#N)[C@H]1CC[C@H]2[C@@H]3C[C@@](O)(c4ccccc4)[C@@H]4C[C@H](O)CC[C@]4(C)[C@H]3CC[C@]12C has FXR (% of activity in comparison to 10 μM CDCA) at least equal to 4%.
yes (1)

I'd appreciate it if you could say whether C=CCCC[C@]1(O)C[C@H]2[C@@H]3CC[C@H]([C@H](C)CC#N)[C@@]3(C)CC[C@@H]2[C@@]2(C)CC[C@@H](O)C[C@@H]12 has FXR (% of activity in comparison to 10 μM CDCA) at least equal to 4%.
no (0)
